experiment: AUC in rat at 10 mg/kg, po; assay type: ADME, organism-based; details: in vivo
METRIC NAME: AUC (µM·h)
// units = µM·h; emit number, no label

Data request: // AUC lookup, key: COc1cc(-c2cccc(F)c2)c(F)cc1-n1c(=O)ccc2cc(S(=O)(=O)Nc3ccon3)ccc21 (atropisomer P)
Data returned: 65

====

test: Volume of distribution at steady state in rat at 0.5 mg/kg, iv; assay type: ADME, organism-based; details: in vivo, read-out: Vdss
For each entry below, report its Vd value.
Write down the numeric answer in L/kg and omit the unit.

Data request: Which Vd is listed for COc1cc(-c2cccc(OC(F)F)c2)c(F)cc1-n1c(=O)ccc2cc(S(=O)(=O)Nc3ccon3)ccc21 ?
Data returned: 2.2

Data request: Which Vd is reported for this molecule? COc1cc(-c2ccc(F)c(C)c2)c(F)cc1-n1c(=O)ccc2cc(S(=O)(=O)Nc3ccon3)ccc21
Data returned: 1.5

Data request: # query: Vd of entry COc1cc(-c2cccc(C(F)(F)F)c2)ccc1-n1c(=O)ccc2cc(S(=O)(=O)Nc3ncccn3)ccc21
Data returned: 2.5

Data request: Query: Vd; subject: COc1cc(-c2cc(OC)c(-n3c(=O)ccc4cc(S(=O)(=O)Nc5ncccn5)ccc43)cc2F)ccc1Cl
Data returned: 1.3
